System: HT-1080
assay: Modulatory profiling: Alamar Blue viability, lethal compound cotreated with death modulator (EC50, AUC)
Format: cell-based
applied-conditions: HT-1080, modulator LNAME
quantity-name: AUC HT.LNAME
Answers are plain numbers.

>>> reading("CCC(C(NNC(=O)c1ccc(C(F)(F)F)cc1)c1ccc(C(F)(F)F)cc1)[N+](=O)O (stereo not shown)")
0.02199
>>> reading("CN(C)CCNC(=O)c1cc2c(s1)-c1ccc(Cl)cc1SC2")
0.007171
>>> reading("CC1=CC(C)(C)Nc2ccc(OC(=O)c3cccnc3)cc21")
"−0.01288"
>>> reading("COc1c2c(cc3c1C(CC(=O)/C=C/c1ccccc1)[N+](C)(C)CC3)OCO2 (stereo not shown)")
0.01693
>>> reading("C[C@@H]1C[C@@H]([C@H](O)CC2CC(=O)NC(=O)C2)C(=O)[C@@H](C)C1 [cycloheximide, Cycloheximide, reference compound]")
0.02188
>>> reading("CC[C@]1(O)C[C@H]2CN(CCc3c([nH]c4ccccc34)[C@@](C(=O)OC)(c3cc4c(cc3OC)N(C=O)[C@H]3[C@@](O)(C(=O)OC)[C@H](OC(C)=O)[C@]5(CC)C=CCN6CC[C@]43[C@@H]65)C2)C1")
0.001779

Go through the list and state AUC HT.LNAME for each entry.
1. CCCCNc1cc(C)nc(NCc2ccccc2)n1
2. O=S1(=O)Nc2c(ccc3cccnc23)-c2ccccc21
3. Cc1cccc(-n2ncc(Cl)c(Cl)c2=O)c1
4. C[C@H]1CCC[C@]2(C)C[C@H]3OC(=O)[C@H](CN4CCCC4)[C@H]3C=C12
5. O=C(Oc1ccc(Cl)c2cccnc12)c1ccco1
6. O=C(/C=C/c1cccc(NC(=O)c2cccs2)c1)c1ccccc1
7. CC1(C)CC(=O)C2=C(C1)OC1=C(C(=O)CC(C)(C)C1)C2c1ccc(O)cc1O

Outgoing:
0.01329
−0.007515
0.04608
0.01972
−0.09982
0.003047
−0.003569

###

For each record, write down the corresponding AUC HT.NMMA.
Tested on: HT-1080
assay: Modulatory profiling: Alamar Blue viability, lethal compound cotreated with death modulator (EC50, AUC)
Assay type: cell-based
applied-conditions: HT-1080, modulator NMMA
Where a SMILES comes first, the peptide text is derived from it. The star is where a group is joined. Cbz = O=C(OCc1ccccc1)*
Numbers only.

# count of solved cases: 5
>>> reading("CC(C)[C@@H]1NC(=O)[C@H](C)OC(=O)[C@@H](C(C)C)NC(=O)[C@@H](C(C)C)OC(=O)[C@H](C(C)C)NC(=O)[C@H](C)OC(=O)[C@@H](C(C)C)NC(=O)[C@@H](C(C)C)OC(=O)[C@H](C(C)C)NC(=O)[C@H](C)OC(=O)[C@@H](C(C)C)NC(=O)[C@@H](C(C)C)OC1=O")
"−0.002681"
>>> reading("CC(C)C[C@@H](C=O)NC(=O)[C@H](CC(C)C)NC(=O)[C@H](CC(C)C)NC(=O)OCc1ccccc1 [MG132, reference compound] (Cbz-Leu-Leu-Leu-aldehyde)")
0.01064
>>> reading("COC(=O)c1ccc([C@@H]2c3[nH]c4ccccc4c3C[C@@H](C(=O)OC)N2C(=O)CCl)cc1 [RSL3, reference compound]")
"−0.00551"
>>> reading("COC(=O)[C@@H]1Cc2c([nH]c3ccccc23)C(C)(C)N1C(=O)CCl")
0.003194
>>> reading("COC(C)(C)C#CC(=O)c1cccc2ccccc12")
"−0.003031"

Go through the list and state AUC HT.NMMA for each entry.
1. C=C(C)[C@H]1Cc2c(ccc3c2O[C@@H]2COc4cc(OC)c(OC)cc4[C@@H]2C3=O)O1
2. CC(C(NNC(=O)c1ccc(C(F)(F)F)cc1)c1ccc(Br)cc1)[N+](=O)[O-] (centres unmarked)
3. O=c1c(N2CCCC2)c(Cl)cnn1-c1ccccc1
4. COc1ccc(Nc2ccc3c(c2)=NC2(CCCCC2)[N+]=3[O-])cc1
5. COC(=O)c1[nH]c2ccc(Br)cc2c1NC(=O)CN1CCN(C2CCCCC2)CC1

Outgoing:
1: 0.007832; 2: −0.01237; 3: −0.0209; 4: −0.03733; 5: −0.0007859

###

For each record, write down the corresponding EC50.
Test system: HT-1080 cells
assay: Lethality of commercially available CIL41/70 structural analogs
Assay type: cell-based
applied-conditions: Homo sapiens, tested once in technical triplicates

Go through the list and state EC50 for each entry.
1. COc1ccccc1C/C(N)=N/OC(=O)COc1ccc(Cl)cc1
2. CC1=C(Br)C(C)N(C/C(N)=N/OC(=O)CC2CC3CCC2C3)N1 (stereo not shown)
3. Cc1cccc(OCC(=O)O/N=C(\N)Cc2ccc(Cl)c(Cl)c2)c1C
4. N/C(Cc1cccs1)=N\OC(=O)C12CC3CC(CC(C3)C1)C2

Outgoing:
1. > 20 mg/L
2. > 20 mg/L
3. > 20 mg/L
4. 2.09 mg/L

###

System: BJeLR
assay: Modulatory profiling: Alamar Blue viability, lethal compound cotreated with death modulator (EC50, AUC)
Format: cell-based, human
applied-conditions: BJeLR cells; lethal compound cotreated with modulator Lmin/NAD+; modulatory profile value (AUC)
Define the label as 1.0 when AUC, modulator BJ.Lmin/NAD+ is strictly less than 0.09 and as 0.0 in all remaining cases.

Incoming: Field: below-cutoff. Rule: recorded AUC, modulator BJ.Lmin/NAD+ strictly less than 0.09. Subject: CC(C)(C)C1CCc2c(sc(NC(=O)CN3CCNCC3)c2C(N)=O)C1 (stereo not shown) [CIL10]
Outgoing: 1.0

Incoming: Field: below-cutoff. Rule: recorded AUC, modulator BJ.Lmin/NAD+ strictly less than 0.09. Subject: COc1ccc(Nc2ccc3c(c2)=NC2(CCCCC2)[N+]=3[O-])cc1 [CIL9]
Outgoing: 1.0

Incoming: Field: below-cutoff. Rule: recorded AUC, modulator BJ.Lmin/NAD+ strictly less than 0.09. Subject: CCOc1ccccc1-n1c(C(C)N2CCN(C(=O)COc3ccc(Cl)cc3)CC2)nc2ccccc2c1=O (stereo not shown) [erastin, reference compound]
Outgoing: 0.0

Incoming: Field: below-cutoff. Rule: recorded AUC, modulator BJ.Lmin/NAD+ strictly less than 0.09. Subject: CC(C)C1CC(CCNCc2ccc3c(c2)OCO3)(c2ccccc2)CCO1 (stereo not shown) [CIL51]
Outgoing: 1.0

Incoming: Field: below-cutoff. Rule: recorded AUC, modulator BJ.Lmin/NAD+ strictly less than 0.09. Subject: C(=N\Nc1nc2ccccc2s1)/c1ccccn1 [CIL52]
Outgoing: 1.0

Incoming: Field: below-cutoff. Rule: recorded AUC, modulator BJ.Lmin/NAD+ strictly less than 0.09. Subject: Cc1cccc(-n2ncc(Cl)c(Cl)c2=O)c1 [CIL22]
Outgoing: 1.0

Incoming: Field: below-cutoff. Rule: recorded AUC, modulator BJ.Lmin/NAD+ strictly less than 0.09. Subject: O=S(=O)(c1ccc2c(c1)C(=NO)c1cc(S(=O)(=O)N3CCCCC3)ccc1-2)N1CCCCC1 [CIL56]
Outgoing: 0.0

Incoming: Field: below-cutoff. Rule: recorded AUC, modulator BJ.Lmin/NAD+ strictly less than 0.09. Subject: CN(C)CC(O)Cn1c2ccc(Cl)cc2c2cc(Cl)ccc21 (stereo not shown) [CIL5]
Outgoing: 1.0

Incoming: Field: below-cutoff. Rule: recorded AUC, modulator BJ.Lmin/NAD+ strictly less than 0.09. Subject: CS[C@H]1SC[C@H]2C(=O)N(C)[C@@H](C(C)C)C(=O)OC[C@@H](NC(=O)c3cnc4ccccc4n3)C(=O)N[C@@H](C)C(=O)N(C)[C@@H]1C(=O)N(C)[C@@H](C(C)C)C(=O)OC[C@@H](NC(=O)c1cnc3ccccc3n1)C(=O)N[C@@H](C)C(=O)N2C [Echinomycin]
Outgoing: 0.0

Incoming: Field: below-cutoff. Rule: recorded AUC, modulator BJ.Lmin/NAD+ strictly less than 0.09. Subject: Cc1cccc(Cn2ncc(Cl)c(Cl)c2=O)c1 [CIL60]
Outgoing: 1.0

Incoming: Field: below-cutoff. Rule: recorded AUC, modulator BJ.Lmin/NAD+ strictly less than 0.09. Subject: COc1ccc(N(C(=O)CCl)C(C(=O)NCCc2ccccc2)c2cccs2)cc1 (stereo not shown) [DPI4]
Outgoing: 0.0

###

Test system: HT-1080
assay: Modulatory profiling: Alamar Blue viability, lethal compound cotreated with death modulator (EC50, AUC)
Format: cell-based
Set-up: unit not given beside the values
applied-conditions: HT-1080, modulator ActD
quantity-name: AUC HT.ActD
One number for each entry.

>>> reading("COc1nn(-c2ccccc2)c(=O)c(Cl)c1Cl")
0.01969
>>> reading("COC(=O)c1[nH]c2ccc(Br)cc2c1NC(=O)CN1CCN(C2CCCCC2)CC1")
0.0007018
>>> reading("CC[C@@]1(O)C(=O)OCc2c1cc1n(c2=O)Cc2cc3ccccc3nc2-1")
"−0.1287"
>>> reading("Cc1cccc(Cn2ncc(Cl)c(Cl)c2=O)c1")
0.04832
>>> reading("O=S(=O)(c1ccc2c(c1)C(=NO)c1cc(S(=O)(=O)N3CCCCC3)ccc1-2)N1CCCCC1")
"−0.124"

Go through the list and state AUC HT.ActD for each entry.
1. CC[C@]1(O)C[C@@H]2CN(CCc3c([nH]c4ccccc34)[C@@](C(=O)OC)(c3cc4c(cc3OC)N(C)[C@H]3[C@@](O)(C(=O)OC)[C@H](OC(C)=O)[C@]5(CC)C=CCN6CC[C@]43[C@@H]65)C2)C1
2. CC1=CC(C)(C)Nc2ccc(OC(=O)c3ccco3)cc21
3. COc1ccc(-n2nnnc2S(=O)(=O)CC(=O)N2CCCCC2)cc1
4. O=c1c(N2CCCC2)c(Cl)cnn1-c1ccccc1
5. CC(C)C[C@H](NC(=O)[C@H](CC(C)C)NC(=O)[C@H](CC(C)C)NC(=O)OCc1ccccc1)B(O)O
6. O=c1c(Cl)c(Cl)cnn1-c1ccc(Cl)c(C(F)(F)F)c1
7. O=C(CCl)N(c1ccc(Cl)cc1)c1c[nH]c2ccccc12

Outgoing:
0.05584
−0.005228
0.01673
−0.006608
−0.05854
−0.03585
0.01892

Go through the list and state AUC HT.ActD for each entry.
1. CN(C)CCCOS(=O)(=O)c1ccc(N2CCC(c3ccc(Cl)cc3)=N2)cc1
2. O=C(CCCCCN1C(=O)c2cccc3cccc(c23)C1=O)NO
3. CCCCNc1cc(C)nc(NCc2ccccc2)n1
4. CC1CC2=C(CC1CNCCCN(C)C)C(C)(C)CCC2 (stereo not shown)

Outgoing:
["−0.06544", "−0.1632", 0.0184, "−0.002488"]
